assay: Stability in rat liver microsomes assessed as parent compound remaining after 2 hrs by LC-MS/MS analysis; type: ADME, microsome; details: read-out: Stability
Simple rule here: remaining at 2 h less than 40% is yes, otherwise no.

CCS(=O)(=O)c1ccc(CC(=O)Nc2ccc(C(C)(C)C(=O)Nc3ccc(F)cc3)cc2)cc1: no

[Q] Find out if reported remaining at 2 h for CCS(=O)(=O)c1ccc(CC(=O)Nc2ccc(C(C)(C)C(=O)Nc3ccccc3F)cc2)cc1 is less than 40%
[A] yes

[Q] Find out if reported remaining at 2 h for CCS(=O)(=O)c1ccc(CC(=O)Nc2ccc(C(C)(C)C(=O)Nc3cccc(F)c3)cc2)cc1 is less than 40%
[A] yes

[Q] Find out if reported remaining at 2 h for CCS(=O)(=O)c1ccc(CC(=O)Nc2ccc(C(C)(C)C(=O)Nc3cc(C#N)ccn3)cc2)cc1 is less than 40%
[A] no

* * *

assay: Fraction unbound in rat plasma at 1 mg/kg, po; type: ADME, organism-based
reportedMetric: fraction unbound
In your answer, state the number alone without any accompanying words.

Example entries begin here.
CCS(=O)(=O)c1ccc(CC(=O)Nc2ccc(C(C)(C)C(=O)Nc3cc(C#N)ccn3)c(F)c2)cc1: 0.051
CCS(=O)(=O)c1ccc(CC(=O)Nc2ccc(C(C)(C)C(=O)Nc3ccc(F)cc3F)c(F)c2)cc1: 0.034

# evaluate next
Summary for this compound, CCS(=O)(=O)c1ccc(CC(=O)Nc2ccc(C(C)(C)C(=O)Nc3ccc(F)cc3)c(F)c2)cc1 : fraction unbound is 0.036

* * *

experiment: Stability in human liver microsomes assessed as parent compound remaining after 2 hrs by LC-MS/MS analysis; type: ADME, microsome; conditions: read-out: Stability
Recorded remaining at 2 h for the following compounds
Give a bare numeral; the unit % is implied.

Example entries begin here.
CCS(=O)(=O)c1ccc(CC(=O)Nc2ccc(C(C)(C)C(=O)Nc3ccc(F)cc3F)c(F)c2)cc1: 95
CCS(=O)(=O)c1ccc(CC(=O)Nc2ccc(C(C)(C)C(=O)Nc3cccc(C(F)(F)F)n3)cc2)cc1: 74
CCS(=O)(=O)c1ccc(CC(=O)Nc2ccc(C(C)(C)C(=O)Nc3cc(C(F)(F)F)ccn3)cc2)cc1: 36

Summary for this compound, CCS(=O)(=O)c1ccc(CC(=O)Nc2ccc(C(C)(C)C(=O)Nc3ncccc3F)cc2)cc1 : remaining at 2 h is 93

Summary for this compound, CCS(=O)(=O)c1ccc(CC(=O)Nc2ccc(C(C)(C)C(=O)Nc3cccc(F)c3)cc2)cc1 : remaining at 2 h is 2.7

Summary for this compound, CCS(=O)(=O)c1ccc(CC(=O)Nc2ccc(C(C)(C)C(=O)Nc3ccccc3C)cc2)cc1 : remaining at 2 h is 24

Summary for this compound, CCS(=O)(=O)c1ccc(CC(=O)Nc2ccc(C(C)(C)C(=O)Nc3cc(C#N)ccn3)c(F)c2)cc1 : remaining at 2 h is 82

* * *

Recorded Efficacy for the following compounds
biological target: Nuclear receptor ROR-gamma (Mus musculus) (UniProt P51450); assay: Transrepression of recombinant mouse GAL4-DBD fused RORgammat LBD expressed in HEK293 cells after 20 hrs by luciferase reporter gene assay; type: cell-based
Sequence (P51450 whole entry, the tested form may be a part): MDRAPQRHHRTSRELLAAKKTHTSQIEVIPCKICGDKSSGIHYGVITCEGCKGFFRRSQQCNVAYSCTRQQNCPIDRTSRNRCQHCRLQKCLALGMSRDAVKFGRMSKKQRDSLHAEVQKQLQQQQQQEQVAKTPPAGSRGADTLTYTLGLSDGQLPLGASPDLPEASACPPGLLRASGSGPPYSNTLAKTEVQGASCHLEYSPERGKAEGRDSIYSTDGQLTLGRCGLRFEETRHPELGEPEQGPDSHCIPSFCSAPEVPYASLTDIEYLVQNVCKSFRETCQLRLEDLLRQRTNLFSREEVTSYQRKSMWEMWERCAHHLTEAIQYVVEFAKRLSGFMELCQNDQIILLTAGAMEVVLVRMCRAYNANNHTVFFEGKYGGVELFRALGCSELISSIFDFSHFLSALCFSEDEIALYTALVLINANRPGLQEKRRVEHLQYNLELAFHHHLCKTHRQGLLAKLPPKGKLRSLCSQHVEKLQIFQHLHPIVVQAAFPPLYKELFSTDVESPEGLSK
Give a bare numeral; the unit % is implied.

CCS(=O)(=O)c1ccc(CC(=O)Nc2ccc(C(C)(C)C(=O)N(C)C)cc2)cc1: 51
CCS(=O)(=O)c1ccc(CC(=O)Nc2ccc(C(C)(C)C(=O)Nc3ccccc3F)cc2)cc1: 76
CCOC(=O)C(C)(C)c1ccc(NC(=O)Cc2ccc(S(=O)(=O)CC)cc2)cc1: 77
CCS(=O)(=O)c1ccc(CC(=O)Nc2ccc(C(C)(C)C(=O)Nc3ccc(F)cc3)c(F)c2)cc1: 85
CCS(=O)(=O)c1ccc(CC(=O)Nc2ccc(C(C)(C)C(=O)N3CCc4ccccc43)cc2)cc1: 87

Summary for this compound, CCS(=O)(=O)c1ccc(CC(=O)Nc2ccc(C(C)(C)C(=O)Nc3ccc(F)cc3F)cc2)cc1 : Efficacy is 73

Summary for this compound, CCS(=O)(=O)c1ccc(CC(=O)Nc2ccc(C(C)(C)C(=O)Nc3cc(C(F)(F)F)ccn3)cc2)cc1 : Efficacy is 94

Summary for this compound, CCS(=O)(=O)c1ccc(CC(=O)Nc2ccc(C(C)(C)C(=O)Nc3cc(Cl)ccn3)cc2)cc1 : Efficacy is 86

Summary for this compound, CCS(=O)(=O)c1ccc(CC(=O)Nc2ccc(C(C)(C)C(=O)N(C)c3ccccc3)cc2)cc1 : Efficacy is 76

* * *

target: Nuclear receptor ROR-gamma (Homo sapiens, UniProt P51449); experiment: Transrepression of recombinant human GAL4-DBD fused RORgammat LBD expressed in HEK293 cells after 20 hrs by luciferase reporter gene assay; assay type: cell-based
Sequence (P51449 whole entry, the tested form may be a part): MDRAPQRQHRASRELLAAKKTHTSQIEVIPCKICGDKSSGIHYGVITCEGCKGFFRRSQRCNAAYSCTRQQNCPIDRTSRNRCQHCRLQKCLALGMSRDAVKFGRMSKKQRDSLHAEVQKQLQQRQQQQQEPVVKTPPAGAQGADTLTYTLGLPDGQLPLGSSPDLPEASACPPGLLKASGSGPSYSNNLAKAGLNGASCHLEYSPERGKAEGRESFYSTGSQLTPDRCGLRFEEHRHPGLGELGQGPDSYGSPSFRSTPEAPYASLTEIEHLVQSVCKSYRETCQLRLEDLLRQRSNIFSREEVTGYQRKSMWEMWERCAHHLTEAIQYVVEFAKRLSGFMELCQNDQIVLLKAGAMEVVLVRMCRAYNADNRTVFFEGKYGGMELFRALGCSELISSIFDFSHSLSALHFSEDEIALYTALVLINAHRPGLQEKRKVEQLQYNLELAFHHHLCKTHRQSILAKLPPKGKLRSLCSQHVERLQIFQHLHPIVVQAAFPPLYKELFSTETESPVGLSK
pIC50: −log10 of the molar value.
Output MET for pIC50 not less than 7; output NOT MET otherwise.

Some solved entries appear below for comparison.
CCS(=O)(=O)c1ccc(CC(=O)Nc2ccc(C(C)(C)C(=O)Nc3cc(C#N)ccn3)cc2)cc1: MET
CCS(=O)(=O)c1ccc(CC(=O)Nc2ccc(C(C)(C)C(=O)N3CCC3)cc2)cc1: NOT MET
CCS(=O)(=O)c1ccc(CC(=O)Nc2ccc(C(C)(C)C(=O)N(C)c3ccccc3)cc2)cc1: MET
CCS(=O)(=O)c1ccc(CC(=O)Nc2ccc(C(C)(C)C(=O)N3CC4(CCC4)C3)cc2)cc1: NOT MET

Please look at the following compound next.
[Q] For this compound, is measured pIC50 7 or higher? CCS(=O)(=O)c1ccc(CC(=O)Nc2ccc(C(C)(C)C(=O)N3CCCCC3)cc2)cc1
[A] NOT MET

* * *

test: Solubility of the compound in NaCl/HCl buffer at pH 1.2 by shake-flask method; format: physicochemical
Output T for solubility thermodynamic not less than 30 µM; output F otherwise.

Some solved entries appear below for comparison.
CCS(=O)(=O)c1ccc(CC(=O)Nc2ccc(C(C)(C)C(=O)Nc3ccc(F)cc3F)c(F)c2)cc1: F
CCS(=O)(=O)c1ccc(CC(=O)Nc2ccc(C(C)(C)C(=O)Nc3ccncc3)cc2)cc1: T

[Q] For this molecule, is measured solubility thermodynamic 30 µM or higher? CCS(=O)(=O)c1ccc(CC(=O)Nc2ccc(C(C)(C)C(=O)Nc3cc(C#N)ccn3)cc2)cc1
[A] T

[Q] For this molecule, is measured solubility thermodynamic 30 µM or higher? CCS(=O)(=O)c1ccc(CC(=O)Nc2ccc(C(C)(C)C(=O)Nc3ccc(F)cc3)cc2)cc1
[A] T

[Q] For this molecule, is measured solubility thermodynamic 30 µM or higher? CCS(=O)(=O)c1ccc(CC(=O)Nc2ccc(C(C)(C)C(=O)Nc3ncccc3F)cc2)cc1
[A] T

* * *

target: Nuclear receptor ROR-gamma (Mus musculus); experiment: Transrepression of recombinant mouse GAL4-DBD fused RORgammat LBD expressed in HEK293 cells after 20 hrs by luciferase reporter gene assay; type: cell-based
Sequence (P51450 whole entry, the tested form may be a part): as the sequence (P51450 whole entry, the tested form may be a part) above
reportedMetric: pIC50
# pIC50: negative log10 of molar concentration; output just the value

CCS(=O)(=O)c1ccc(CC(=O)Nc2ccc(C(C)(C)C(=O)Nc3cc(F)ccn3)cc2)cc1: 6.49
CCOC(=O)C(C)(C)c1ccc(NC(=O)Cc2ccc(S(=O)(=O)CC)cc2)cc1: 5.51
CCS(=O)(=O)c1ccc(CC(=O)Nc2ccc(C(C)(C)C(=O)Nc3cccc(F)c3)cc2)cc1: 6.59
CCS(=O)(=O)c1ccc(CC(=O)Nc2ccc(C(C)(C)C(=O)Nc3cccnc3)cc2)cc1: 5.35

# evaluate next
Summary for this molecule, CCS(=O)(=O)c1ccc(CC(=O)Nc2ccc(C(C)(C)C(=O)Nc3cc(C#N)ccn3)c(F)c2)cc1 : pIC50 is 7.13

* * *

molecular target: Nuclear receptor ROR-gamma (Homo sapiens); assay: Transrepression of recombinant human GAL4-DBD fused RORgammat LBD expressed in HEK293 cells after 20 hrs by luciferase reporter gene assay; assay type: cell-based
reportedMetric: pIC50
# pIC50: negative log10 of molar concentration; output just the value

Example entries begin here.
CCS(=O)(=O)c1ccc(CC(=O)Nc2ccc(C(C)(C)C(=O)Nc3ccccc3)cc2)cc1: 7.85
CCS(=O)(=O)c1ccc(CC(=O)Nc2ccc(C(C)(C)C(=O)Nc3cc(C#N)ccn3)c(F)c2)cc1: 7.80
CCS(=O)(=O)c1ccc(CC(=O)Nc2ccc(C(C)(C)C(=O)Nc3ccncc3)cc2)cc1: 5.74
CCS(=O)(=O)c1ccc(CC(=O)Nc2ccc(C(C)(C)C(=O)N3Cc4ccccc4C3)cc2)cc1: 6.59

// assay Nuclear receptor ROR-gamma (Homo sapiens), entry CCS(=O)(=O)c1ccc(CC(=O)Nc2ccc(C(C)(C)C(=O)Nc3cc(Cl)ccn3)cc2)cc1 , pIC50 value = 8.09

// assay Nuclear receptor ROR-gamma (Homo sapiens), entry CCS(=O)(=O)c1ccc(CC(=O)Nc2ccc(C(C)(C)C(=O)N3CCc4ccccc43)cc2)cc1 , pIC50 value = 8.00

// assay Nuclear receptor ROR-gamma (Homo sapiens), entry CCS(=O)(=O)c1ccc(CC(=O)Nc2ccc(C(C)(C)C(=O)Nc3cc(F)ccn3)cc2)cc1 , pIC50 value = 7.51

// assay Nuclear receptor ROR-gamma (Homo sapiens), entry CCS(=O)(=O)c1ccc(CC(=O)Nc2ccc(C(C)(C)C(=O)Nc3ccc(F)cc3)c(F)c2)cc1 , pIC50 value = 7.60

// assay Nuclear receptor ROR-gamma (Homo sapiens), entry CCS(=O)(=O)c1ccc(CC(=O)Nc2ccc(C(C)(C)C(=O)Nc3cccc(C(F)(F)F)n3)cc2)cc1 , pIC50 value = 6.30
